Values from ChEMBL document CHEMBL1132636

Tested on: MT4
Experiment: In vitro cytotoxicity against mock infected MT-4 cells.
Type: functional
Conditions: Homo sapiens
Measured CC50, listed per entry.
Report the value in µM with no unit label.

// solved cases for CC50 follow
O=C1OC(c2ccc(O)c(Cl)c2)(c2ccc(O)c(Cl)c2)c2ccccc21 | 77
O=C1OC(c2ccc(O)cc2)(c2ccc(O)cc2)c2cc3ccccc3cc21 | 79

The compound O=C1OC(c2ccc(O)c(F)c2)(c2ccc(O)c(F)c2)c2cccc3cccc1c23 , tested on MT4, showed CC50 of 117

The compound O=C1OC(c2ccc(O)cc2)(c2ccc(O)cc2)c2ccccc21 , tested on MT4, showed CC50 of 58

The compound O=C1OC(c2ccc(O)c(Cl)c2)(c2ccc(O)c(Cl)c2)c2cccc3cccc1c23 , tested on MT4, showed CC50 of 46

The compound O=C1OC(c2ccc(O)c(F)c2)(c2ccc(O)c(F)c2)c2cc3ccccc3cc21 , tested on MT4, showed CC50 of 94

The compound O=C1OC(c2ccc(O)cc2)(c2ccc(O)cc2)c2ccc(Br)c3cccc1c23.O=C1OC(c2ccc(O)cc2)(c2ccc(O)cc2)c2cccc3c(Br)ccc1c23 , tested on MT4, showed CC50 of 76

The compound O=C1OC(c2ccc(O)c(Cl)c2)(c2ccc(O)c(Cl)c2)c2ccc(Cl)c3cccc1c23.O=C1OC(c2ccc(O)c(Cl)c2)(c2ccc(O)c(Cl)c2)c2cccc3c(Cl)ccc1c23 , tested on MT4, showed CC50 of 63

====

Tested on: Streptococcus
Assay: In vitro inhibition of Streptococcus growth.
Type: functional
MIC less than 8 µM is criterion met; MIC greater than or equal to 8 µM is criterion not met.

O=C1OC(c2ccc(O)c(Cl)c2)(c2ccc(O)c(Cl)c2)c2ccc(Cl)c3cccc1c23.O=C1OC(c2ccc(O)c(Cl)c2)(c2ccc(O)c(Cl)c2)c2cccc3c(Cl)ccc1c23 | criterion met
O=C1OC(O)(c2ccccc2O)c2cccc3cccc1c23 (stereo not given) | criterion not met
O=C1OC(c2ccc(O)cc2)(c2ccc(O)cc2)c2cccc3cccc1c23 | criterion not met

Query: Strictly below 8 µM: is that where MIC of O=C1OC(c2ccc(O)c(Cl)c2)(c2ccc(O)c(Cl)c2)c2ccc(Br)c3cccc1c23.O=C1OC(c2ccc(O)c(Cl)c2)(c2ccc(O)c(Cl)c2)c2cccc3c(Br)ccc1c23 sits?
Response: criterion met

Query: Strictly below 8 µM: is that where MIC of Cc1ccc(C(C)C)c(O)c1C1(O)OC(=O)c2cccc3cccc1c23 (stereo not given) sits?
Response: criterion not met

Query: Strictly below 8 µM: is that where MIC of O=C1OC(c2ccc(O)cc2)(c2ccc(O)cc2)c2ccc3c4c(ccc1c24)CC3 sits?
Response: criterion not met

Query: Strictly below 8 µM: is that where MIC of O=C1OC(c2ccc(O)c(Cl)c2)(c2ccc(O)c(Cl)c2)c2cc3ccccc3cc21 sits?
Response: criterion met

====

Tested on: MT4
Experiment: In vitro cytotoxicity against mock infected MT-4 cells.
Type: functional
Conditions: Homo sapiens
CC50 less than 90 µM is criterion met; CC50 greater than or equal to 90 µM is criterion not met.

O=C1OC(c2ccc(O)cc2)(c2ccc(O)cc2)c2cccc3cccc1c23 | criterion met
COc1ccc(C2(c3ccc(OC)cc3)OC(=O)c3cccc4cccc2c34)cc1 | criterion met
O=C1OC(O)(c2ccc(O)c(Cl)c2)c2ccc([N+](=O)[O-])c3cccc1c23 (stereo unspecified) | criterion met
O=C1OC(c2ccc(O)cc2)(c2ccc(O)cc2)c2ccc([N+](=O)[O-])c3cccc1c23 | criterion met
O=C1OC(c2ccc(O)c(Cl)c2)(c2ccc(O)c(Cl)c2)c2cc3ccccc3cc21 | criterion not met

Query: Strictly below 90 µM: is that where CC50 of O=C1OC(c2ccc(O)cc2)(c2ccc(O)c3ccccc23)c2ccccc21 (stereo unspecified) sits?
Response: criterion met

Query: Strictly below 90 µM: is that where CC50 of O=C1OC(O)(c2ccccc2O)c2cccc3cccc1c23 (stereo unspecified) sits?
Response: criterion not met

Query: Strictly below 90 µM: is that where CC50 of O=C1OC(c2ccc(O)cc2)(c2ccc(O)cc2)c2ccc3c4c(ccc1c24)CC3 sits?
Response: criterion met

Query: Strictly below 90 µM: is that where CC50 of O=C1OC(c2ccc(O)c(Cl)c2)(c2ccc(O)c(Cl)c2)c2ccc(Br)c3cccc1c23.O=C1OC(c2ccc(O)c(Cl)c2)(c2ccc(O)c(Cl)c2)c2cccc3c(Br)ccc1c23 sits?
Response: criterion not met

Query: Strictly below 90 µM: is that where CC50 of O=C1OC(c2ccc(O)cc2)(c2ccc(O)cc2)c2ccc(Cl)c3cccc1c23.O=C1OC(c2ccc(O)cc2)(c2ccc(O)cc2)c2cccc3c(Cl)ccc1c23 sits?
Response: criterion met

====

Assay: Ratio of cytotoxic concentration to that of minimum inhibitory concentration against Streptococcus (CC50/MIC50).
Type: functional
# binning rule on SI: LOW = under 3, MID = from 3 up to 8, HIGH = 8 and over

O=C1OC(c2ccc(O)cc2)(c2ccc(O)cc2)c2ccc(Br)c3cccc1c23.O=C1OC(c2ccc(O)cc2)(c2ccc(O)cc2)c2cccc3c(Br)ccc1c23 | HIGH

Query: For the record O=C1OC(c2ccc(O)c(Cl)c2)(c2ccc(O)c(Cl)c2)c2ccc(Br)c3cccc1c23.O=C1OC(c2ccc(O)c(Cl)c2)(c2ccc(O)c(Cl)c2)c2cccc3c(Br)ccc1c23 , report the class its SI corresponds to.
Response: HIGH

Query: For the record O=C1OC(O)(c2ccccc2O)c2cccc3cccc1c23 (stereo not given) , report the class its SI corresponds to.
Response: LOW

Query: For the record O=C1OC(c2ccc(O)cc2)(c2ccc(O)cc2)c2cc3ccccc3cc21 , report the class its SI corresponds to.
Response: LOW

Query: For the record O=C1OC(c2ccc(O)c(Cl)c2)(c2ccc(O)c(Cl)c2)c2cc3ccccc3cc21 , report the class its SI corresponds to.
Response: HIGH

Query: For the record O=C1OC(c2ccc(O)c(Cl)c2)(c2ccc(O)c(Cl)c2)c2ccccc21 , report the class its SI corresponds to.
Response: LOW

====

IF data for thymidylate synthase (Pneumocystis carinii) follow.
Quick one: just the number, no unit, thanks!

// solved cases for IF follow
O=C1OC(c2ccc(O)c(Cl)c2)(c2ccc(O)c(Cl)c2)c2ccccc21 | 0.725
O=C1OC(c2ccc(O)cc2)(c2ccc(O)cc2)c2cc3ccccc3cc21 | 0.459
O=C1OC(c2ccc(O)cc2)(c2ccc(O)cc2)c2ccc(Br)c3cccc1c23.O=C1OC(c2ccc(O)cc2)(c2ccc(O)cc2)c2cccc3c(Br)ccc1c23 | 0.536
COc1ccc(C2(c3ccc(OC)cc3)OC(=O)c3cccc4cccc2c34)cc1 | 0.749
O=C1OC(O)(c2ccc(O)c(Cl)c2)c2ccc([N+](=O)[O-])c3cccc1c23 (centres undefined) | 0.418

The compound O=C1OC(O)(c2ccccc2O)c2cccc3cccc1c23 (centres undefined) , tested on thymidylate synthase (Pneumocystis carinii), showed IF of 0.151

The compound O=C1OC(c2ccc(O)cc2)(c2ccc(O)cc2)c2ccc3c4c(ccc1c24)CC3 , tested on thymidylate synthase (Pneumocystis carinii), showed IF of 0.344

The compound O=C1OC(c2ccc(O)cc2)(c2ccc(O)c3ccccc23)c2ccccc21 (centres undefined) , tested on thymidylate synthase (Pneumocystis carinii), showed IF of 0.498

The compound O=C1OC(c2ccc(O)c(F)c2)(c2ccc(O)c(F)c2)c2cc3ccccc3cc21 , tested on thymidylate synthase (Pneumocystis carinii), showed IF of 0.582

====

Measured log10 of MIC, listed per entry.
Tested on: Streptococcus
Assay: In vitro inhibition of Streptococcus growth.
Type: functional
Hi team, quick reminder: these entries are log10 of MIC (µM).

O=C1OC(c2ccc(O)c(F)c2)(c2ccc(O)c(F)c2)c2cccc3cccc1c23 | 1.40

The measured log10 of MIC associated with O=C1OC(c2ccc(O)c(Cl)c2)(c2ccc(O)c(Cl)c2)c2ccccc21 reads 1.51

The measured log10 of MIC associated with O=C1OC(c2ccc(O)c(Cl)c2)(c2ccc(O)c(Cl)c2)c2cccc3cccc1c23 reads 0.26

====

IF data for thymidylate synthase (Cryptococcus neoformans) follow.
Quick one: just the number, no unit, thanks!

// solved cases for IF follow
O=C1OC(c2ccc(O)cc2)(c2ccc(O)c3ccccc23)c2ccccc21 (centres undefined) | 0.389
O=C1OC(c2ccc(O)c(F)c2)(c2ccc(O)c(F)c2)c2cc3ccccc3cc21 | 0.507
COc1ccc(C2(c3ccc(OC)cc3)OC(=O)c3cccc4cccc2c34)cc1 | 0.836
O=C1OC(O)(c2ccccc2O)c2cccc3cccc1c23 (centres undefined) | 0.576
O=C1OC(c2ccc(O)cc2)(c2ccc(O)cc2)c2ccc3c4c(ccc1c24)CC3 | 0.344
O=C1OC(c2ccc(O)cc2)(c2ccc(O)cc2)c2cc3ccccc3cc21 | 0.215

The compound O=C1OC(c2ccc(O)c(Cl)c2)(c2ccc(O)c(Cl)c2)c2ccccc21 , tested on thymidylate synthase (Cryptococcus neoformans), showed IF of 0.704

The compound O=C1OC(c2ccc(O)cc2)(c2ccc(O)cc2)c2ccc(Br)c3cccc1c23.O=C1OC(c2ccc(O)cc2)(c2ccc(O)cc2)c2cccc3c(Br)ccc1c23 , tested on thymidylate synthase (Cryptococcus neoformans), showed IF of 0.243
